# credit: PubChem BioAssay

# Test details: doxorubicin toxicity protection in MRP-1 cells – H69AR cells, CellTiter-Glo, duplicate, MRP-1 activator project, pilot screen (AID 807);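 note: compound pretreatment 18-22 h then 72 h combined with doxorubicin; 0% = doxorubicin alone and 100% = vehicle without doxorubicin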
# Reported conditions: H69AR viability with doxorubicin, CellTiter-Glo luminescence; at 10 µM; hits give high values
Reported endpoint: viability increase (%)

• Cn1c2c(c(=O)n(C)c1=O)C1c3ccccc3OCC1C(C)(C)O2 (stereo unspecified) = -2.46
• CCC1CCCCN1C(=O)CSc1nnc(-c2ccc(OC)cc2)o1 (stereo unspecified) = -1.66
• Cc1cc(C)nc(NC2=NCC(=O)N2c2ccccc2Br)n1 = -0.37
• NC(=O)c1cccc2c1C(=O)N(C1CCCCC1)C2 = -0.58
• CCn1cc(C(=O)NCC2COc3ccccc3O2)c2cc(OC)c(OC)cc2c1=O (stereo unspecified) = -4.69
• Cc1nc2ccccc2c2oc(C(=O)NCC3COc4ccccc4O3)cc12 (stereo unspecified) = -1.89
• COc1ccc(Cl)cc1NC(=O)c1cnc2n(c1=O)CCS2 = -4.43
• Cc1cc(C)c(NC(=O)CSc2nc3c(c(=O)n2C)SC(C)C3)c(C)c1 (stereo unspecified) = -0.13
• CCC1CCCCN1C(=O)CSc1nnc(-c2ccc(Cl)cc2)o1 (stereo unspecified) = 0.28
• CCOC(=O)/C(C#N)=C1/C=Nc2ccccc2N1 = -1.54
• CCOC(=O)N1CCN(c2cc(=O)n(-c3ccccc3Cl)c(=O)[nH]2)CC1 = 1.69
